# PROTOCOL: Toxicity in ip dosed ICR mouse up to 3 weeks
# Type: organism-based
# APPLIED_CONDITIONS: in vivo
Collected MTD at 504 h values appear next to each entry.
Respond with the bare value in mg/kg.

Illustrative cases are given below, each with its answer.
{"CHEMICAL_STRUCTURE": "F[B-](F)(F)F.[NH2+]=c1ccn2c(n1)O[C@@H]1[C@H](OC(=O)CCCCCN3C(=O)c4ccccc4C3=O)[C@@H](COC(=O)CCCCCN3C(=O)c4ccccc4C3=O)O[C@H]12", "UNIT_ANNOTATION": "mg/kg", "MTD at 504 h": 300}
{"CHEMICAL_STRUCTURE": "Cl.N=c1ccn2c(n1)O[C@@H]1[C@H](O)[C@@H](CO)O[C@H]12", "UNIT_ANNOTATION": "mg/kg", "MTD at 504 h": 3000}
{"CHEMICAL_STRUCTURE": "Cl.N=c1ccn2c(n1)O[C@@H]1[C@H](OC(=O)CCCCCCCCCCBr)[C@@H](COC(=O)CCCCCCCCCCBr)O[C@H]12", "UNIT_ANNOTATION": "mg/kg", "MTD at 504 h": 300}
{"CHEMICAL_STRUCTURE": "CCCCCCCC(=O)O[C@H]1[C@H]2Oc3nc(=N)ccn3[C@@H]2O[C@@H]1COP(=O)(O)O", "UNIT_ANNOTATION": "mg/kg", "MTD at 504 h": 500}
{"CHEMICAL_STRUCTURE": "CCCC(=O)NCCCCCCCCCCC(=O)OC[C@H]1O[C@@H]2[C@H](Oc3nc(=N)ccn32)[C@@H]1OC(=O)CCCCCCCCCCNC(=O)CCC.Cl", "UNIT_ANNOTATION": "mg/kg", "MTD at 504 h": 500}
{"CHEMICAL_STRUCTURE": "CCCCCCCCCCCCCCCC(=O)OC[C@H]1O[C@@H]2[C@H](Oc3nc(=N)ccn32)[C@@H]1OC(=O)CCCCCCCCCCCCCCC.Cl", "UNIT_ANNOTATION": "mg/kg", "MTD at 504 h": 750}

Query block: Could you share which MTD at 504 h value was measured for CCCCCCCCCCCCCCCC(=O)O[C@H]1[C@H]2Oc3nc(=N)ccn3[C@@H]2O[C@@H]1COP(=O)(O)O ?
Result block: 500

###

# Tested on: L1210
# PROTOCOL: Antitumor activity against mouse L1210 cells allografted in BDF1 mouse assessed as increase of host life span at 100 mg/kg, ip qd for 5 days
# Type: functional
# APPLIED_CONDITIONS: route intraperitoneal
Reported Activity by item:
Your answer is read as %, so omit the unit and give the number.

Here are 2 compounds together with their reported answers.
{"CHEMICAL_STRUCTURE": "CCCCCCCCOc1ccc(C(=O)OC[C@H]2O[C@@H]3[C@H](Oc4nc(=N)ccn43)[C@@H]2OC(=O)c2ccc(OCCCCCCCC)cc2)cc1.Cl", "UNIT_ANNOTATION": "%", "Activity": 12.8}
{"CHEMICAL_STRUCTURE": "CC(C)(C)c1ccc(C(=O)OC[C@H]2O[C@@H]3[C@H](Oc4nc(=N)ccn43)[C@@H]2OC(=O)c2ccc(C(C)(C)C)cc2)cc1.Cl", "UNIT_ANNOTATION": "%", "Activity": 116.7}

Could you now look at the following compound, please?
Query block: May I ask what Activity has been recorded for Cl.N=c1ccn2c(n1)O[C@@H]1[C@H](OC(=O)c3ccc(Cl)cc3)[C@@H](COC(=O)c3ccc(Cl)cc3)O[C@H]12 ?
Result block: 105.1

###

# Test system: L1210
# PROTOCOL: Antitumor activity against mouse L1210 cells allografted in BDF1 mouse assessed as increase of host life span at 25 mg/kg, ip qd for 5 days
# Format: functional
# APPLIED_CONDITIONS: route intraperitoneal
Mark t for Activity under 60%, f if at or over.

{"CHEMICAL_STRUCTURE": "CC(C)(C)c1ccc(C(=O)OC[C@H]2O[C@@H]3[C@H](Oc4nc(=N)ccn43)[C@@H]2OC(=O)c2ccc(C(C)(C)C)cc2)cc1.Cl", "ASSIGNED_CLASS": "f"}
{"CHEMICAL_STRUCTURE": "CCCCCCCCCCCCCCCC(=O)OC[C@H]1O[C@@H]2[C@H](Oc3nc(=N)ccn32)[C@@H]1OC(=O)CCCCCCCCCCCCCCC.Cl", "ASSIGNED_CLASS": "f"}
{"CHEMICAL_STRUCTURE": "Cl.N=c1ccn2c(n1)O[C@@H]1[C@H](OC(=O)/C=C/c3ccco3)[C@@H](COC(=O)/C=C/c3ccco3)O[C@H]12", "ASSIGNED_CLASS": "t"}
{"CHEMICAL_STRUCTURE": "Cl.N=c1ccn2c(n1)O[C@@H]1[C@H](OC(=O)c3ccc(Cl)cc3)[C@@H](COC(=O)c3ccc(Cl)cc3)O[C@H]12", "ASSIGNED_CLASS": "t"}

Shift focus to the following entry.
Query block: Given Cl.N=c1ccn2c(n1)O[C@@H]1[C@H](OC(=O)c3ccc(F)cc3)[C@@H](COC(=O)c3ccc(F)cc3)O[C@H]12 , is recorded Activity strictly lower than 60%?
Result block: t

###

Known MTD at 504 h of a selection of compounds
# PROTOCOL: Toxicity in ip dosed ICR mouse up to 3 weeks
# Type: organism-based
# APPLIED_CONDITIONS: in vivo

{"CHEMICAL_STRUCTURE": "Cc1ccc(C(=O)OC[C@H]2O[C@@H]3[C@H](Oc4nc(=N)ccn43)[C@@H]2OC(=O)c2ccc(C)cc2)cc1.Cl", "RESULT": "750 mg/kg"}

Query block: Quick one: MTD at 504 h of C=CCCCCCCCCC(=O)OC[C@H]1O[C@@H]2[C@H](Oc3nc(=N)ccn32)[C@@H]1OC(=O)CCCCCCCCC=C.Cl ?
Result block: 300 mg/kg

Query block: Note, next up: Cl.N=c1ccn2c(n1)O[C@@H]1[C@H](OC(=O)c3cccc(Cl)c3)[C@@H](COC(=O)c3cccc(Cl)c3)O[C@H]12
Result block: < 300 mg/kg

Query block: Okay, and Cl.N=c1ccn2c(n1)O[C@@H]1[C@H](OC(=O)c3ccccc3Cl)[C@@H](COC(=O)c3ccccc3Cl)O[C@H]12 ?
Result block: < 300 mg/kg

Query block: And the next one, F[B-](F)(F)F.[NH2+]=c1ccn2c(n1)O[C@@H]1[C@H](OC(=O)CCCCCCCCCCN3C(=O)c4ccccc4C3=O)[C@@H](COC(=O)CCCCCCCCCCN3C(=O)c4ccccc4C3=O)O[C@H]12 ?
Result block: 500 mg/kg

Query block: Now try CCOc1ccc(C(=O)OC[C@H]2O[C@@H]3[C@H](Oc4nc(=N)ccn43)[C@@H]2OC(=O)c2ccc(OCC)cc2)cc1.Cl .
Result block: 500 mg/kg

Query block: Similarly, Cl.N=c1ccn2c(n1)O[C@@H]1[C@H](OC(=O)c3ccc(F)cc3)[C@@H](COC(=O)c3ccc(F)cc3)O[C@H]12 ?
Result block: 500 mg/kg

Query block: Check CCCCCCCOCCC(=O)OC[C@H]1O[C@@H]2[C@H](Oc3nc(=N)ccn32)[C@@H]1OC(=O)CCOCCCCCCC.Cl too.
Result block: 100 mg/kg

Query block: Continue with F[B-](F)(F)F.[NH2+]=c1ccn2c(n1)O[C@@H]1[C@H](OC(=O)CCCCCCCCCCNC(=O)c3ccccc3)[C@@H](COC(=O)CCCCCCCCCCNC(=O)c3ccccc3)O[C@H]12
Result block: 500 mg/kg

###

# Tested on: L1210
# PROTOCOL: Antitumor activity against mouse L1210 cells allografted in BDF1 mouse assessed as increase of host life span at 200 mg/kg, po qd for 5 days
# Assay type: functional
MEASURED_ENDPOINT: Activity (%)
The figure you give is taken to be in %; do not add the unit.

Example entries begin here.
{"CHEMICAL_STRUCTURE": "CCCCSCCCCCCCCCCC(=O)OC[C@H]1O[C@@H]2[C@H](Oc3nc(=N)ccn32)[C@@H]1OC(=O)CCCCCCCCCCSCCCC.Cl", "Activity, %": 13.3}
{"CHEMICAL_STRUCTURE": "Cl.N=c1ccn2c(n1)O[C@@H]1[C@H](OC(=O)/C=C/c3ccco3)[C@@H](COC(=O)/C=C/c3ccco3)O[C@H]12", "Activity, %": 26.7}
{"CHEMICAL_STRUCTURE": "CCCCCCCCCCCCCCCC(=O)O[C@H]1[C@H]2Oc3nc(=N)ccn3[C@@H]2O[C@@H]1COP(=O)(O)O", "Activity, %": 43}

Next:
Query block: Could you tell me which Activity is on file for Cl.N=c1ccn2c(n1)O[C@@H]1[C@H](O)[C@@H](CO)O[C@H]12 ?
Result block: 69.2
